Reference source for all entries: paper PMC2756588

# MEASUREMENT_TARGET: T1, Bzz1-1, P38822
# T1 sequence (P38822 478-572, looked up): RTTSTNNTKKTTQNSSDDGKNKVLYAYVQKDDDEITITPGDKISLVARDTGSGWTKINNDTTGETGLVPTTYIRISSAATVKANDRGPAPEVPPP
# METHOD: SPOT array
# EXPERIMENTAL_PARAMETERS: median of control spots 4446
Listed below: SPOT intensity values for each entry.
Output: the number by itself.

stdin: State its SPOT intensity for this binder: GATNNAPTLPKRKNP
stdout: 0

stdin: Tell me SPOT intensity reported for RKNRAPPQRPRFNRD
stdout: 11

stdin: Please list SPOT intensity recorded for the binder RNNRPVPPPPPMRTT
stdout: 6

stdin: Give the reported value of SPOT intensity for this record: NPNRRAPRRPLSTQH
stdout: 0

stdin: Please report SPOT intensity for the following binder: RPKRRAPPPVPKKPS
stdout: 480

stdin: Check the records and state SPOT intensity for EREKALPPIPFTTTL
stdout: 0

stdin: State its SPOT intensity for this binder: IAPIPMPKPNPTHIS
stdout: 0

stdin: Write down SPOT intensity measured for item QTMRQAPKRPDADVA
stdout: 0

stdin: Determine from records and report SPOT intensity for YSRKKLPVVLSKMTL
stdout: 1

stdin: Please report the measured SPOT intensity for ERPKRRAPPPVPKKP
stdout: 160

stdin: Give the reported SPOT intensity for this binder. NLKKRPPTAPQRKIS
stdout: 22

stdin: Please indicate SPOT intensity recorded for FYHRPAPKPPVTKKV
stdout: 16

stdin: Given MFLISPPASPPPEFD , respond with its SPOT intensity.
stdout: 0

stdin: Provide only the value of recorded SPOT intensity for PPPPPPPPPPLPQSL
stdout: 5

stdin: Please report the measured SPOT intensity for SKSRLLIELPEGFFT
stdout: 1
